- measured-on: T1, full-length beta-Catenin (Uniprot ID P35222) (Homo sapiens (Human), UniProt P35222 1-781)
- T1 construct: also called bCat; B-Catenin
- T1 sequence: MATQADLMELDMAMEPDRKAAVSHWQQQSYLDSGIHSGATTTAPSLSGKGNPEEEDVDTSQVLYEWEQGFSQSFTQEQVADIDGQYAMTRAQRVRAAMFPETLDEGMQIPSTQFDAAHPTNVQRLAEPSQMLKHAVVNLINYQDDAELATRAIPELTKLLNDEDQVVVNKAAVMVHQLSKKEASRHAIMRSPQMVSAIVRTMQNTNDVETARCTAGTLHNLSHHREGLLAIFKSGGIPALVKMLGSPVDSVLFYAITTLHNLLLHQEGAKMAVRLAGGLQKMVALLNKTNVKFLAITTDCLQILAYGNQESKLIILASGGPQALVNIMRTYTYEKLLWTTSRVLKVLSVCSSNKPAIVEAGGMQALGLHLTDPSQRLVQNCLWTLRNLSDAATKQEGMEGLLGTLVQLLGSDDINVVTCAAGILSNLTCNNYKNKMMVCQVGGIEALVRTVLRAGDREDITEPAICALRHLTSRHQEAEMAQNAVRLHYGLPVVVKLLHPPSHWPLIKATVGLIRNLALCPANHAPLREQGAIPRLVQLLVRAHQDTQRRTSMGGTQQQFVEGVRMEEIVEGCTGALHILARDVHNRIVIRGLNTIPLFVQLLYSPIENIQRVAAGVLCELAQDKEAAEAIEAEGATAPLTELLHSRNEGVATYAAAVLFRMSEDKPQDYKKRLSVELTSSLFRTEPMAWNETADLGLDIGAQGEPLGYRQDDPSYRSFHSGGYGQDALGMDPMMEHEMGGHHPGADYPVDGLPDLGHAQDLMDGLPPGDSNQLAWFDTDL
- test-summary: fluorescence polarization competition; full-length beta-catenin, competitor 5FAM-TCF4(10-53) probe
Starred links: 1 amine or outer side, 2 acyl side, 3 side chain; linkers in the order of their positions; H or OH if unused. Positions of bridges follow the written chain, without caps; N, C: chain ends. Non-standard residues stand in square brackets, D forms with d. Primed or numbered codes have the meaning given here. B5(17) = 2,2-bis(4-pentenyl)glycine = 2-amino-2-(pent-4-en-1-yl)hept-6-enoic acid, stitching residue, C=CCCCC(CCCC=C)(N[*:1])C(=O)[*:2]; Bta = N[C@@H](Cc1csc2ccccc12)C(=O)O; αAllylPro = C=CC[C@@]1(C(=O)O)CCCN1; S8 = C=CCCCCCC[C@](C)(N)C(=O)O
Recorded measurements of pIC50, one per entry
The read-out pIC50 is expressed as -log10 of concentration in moles per litre.

Example entries and their recorded answers appear below.
binder="XDLXDEAAFNXFXH (not fully specified; N-terminal Ac; C-terminal NH2; PL3 at 1, B5 at 4, S8 at 11, BztA at 13, dHis (D-His) at 14; stapled PL3-B5 and B5-S8 by olefin metathesis, Stapled peptide; same description as I-744, later eluting staple isomer composition; also called Ac-PL3-Asp-Leu-B5-Asp-Glu-Ala-Ala-Phe-Asn-S8-Phe-BztA-dHis-NH2) [I-745]" result=7.10
binder="XDLXDEAAFNXFXH (not fully specified; N-terminal Ac; C-terminal NH2; PL3 at 1, B5 at 4, S8 at 11, BztA at 13, dHis (D-His) at 14; stapled PL3-B5 and B5-S8 by olefin metathesis, Stapled peptide; also called Ac-PL3-Asp-Leu-B5-Asp-Glu-Ala-Ala-Phe-Asn-S8-Phe-BztA-dHis-NH2) [I-744]" result=6.95

[Q] GET /values?readout=pIC50&item= Ac-[αAllylPro]DL[B5(17)]DEAAFN[S8]F[Bta]Q[dA]-NH2 (staple 1-4, 4-11, also called Ac-PL3-Asp-Leu-B5-Asp-Glu-Ala-Ala-Phe-Asn-S8-Phe-BztA-Gln-dAla-NH2) [I-731]
[A] 7.47

[Q] Can you check XDLXDEAAFNXFXQA (not fully specified; N-terminal Ac; C-terminal NH2; PL3 at 1, B5 at 4, S8 at 11, BztA at 13; stapled PL3-B5 and B5-S8 by olefin metathesis, Stapled peptide; also called Ac-PL3-Asp-Leu-B5-Asp-Glu-Ala-Ala-Phe-Asn-S8-Phe-BztA-Gln-Ala-NH2) [I-730] next?
[A] 7.46
